Field: apparent KD of MS2 coat protein. Provide a value for each of the sequences that follow.
Tested on: MS2 coat protein
Test: apparent KD of MS2 coat protein, switch ON state; designed switch direction (-1 OFF switch, 1 ON switch): 1; higher = weaker reporter binding
Conditions: FMN input: 0 or 200 uM; Eterna round: R93 (includes R88 designs)
Express the result in nM but write the number alone.

Report apparent KD of MS2 coat protein for CAGCGCUGUCGAGAGGAUAUGCGGUGAAGGACAUGAGGAUCACCCAUGUAAGCGAUAGCAUUACGGUAGAAGGCUCUGCAGCUGC [Ceriso] tested on MS2 coat protein.
95.7

Report apparent KD of MS2 coat protein for AAACCACAUGAGGAUCACCCAUGUGAAAAAAACAUAGGAUAUGGAAACACGAAAGUGAAACCAGAAGGGUGAAAAA [77%, Mat - Mod of Eli, 27] tested on MS2 coat protein.
24.3

Report apparent KD of MS2 coat protein for AAAAGACAUGAGGAUCACCCAUGUGAAAACGUAGGAGGAUAUGUAUGGAAACCAGACUGUACAGAAGGCCUUUGUC [SS1 - 75] tested on MS2 coat protein.
23

Report apparent KD of MS2 coat protein for GAAAAACAUGAGGAUCACCCAUGUGGAAAUAUGGGAGGAUAUACGAAGACGAAAGUCAAAGUAGAAGGCCUAAAAG [Same State 1.4c (Mat - Mod of Eli - )] tested on MS2 coat protein.
22

Report apparent KD of MS2 coat protein for AAAUAAAGGACUGAGGAUAUACCACAUGAAACAUGAGGAUCACCCAUGUAGAAAUACAAAGGGUGGUAGAAGGCAGUCCACAAAC [Same State 2.5g ( so lets mod hyphema)] tested on MS2 coat protein.
15

Report apparent KD of MS2 coat protein for AAGGAACAUGAGGAUCACCCAUGUAAAAAAUAUGGAGGAUAUACUAGAAGAAACAAAAUAGUAGAAGGCCAAAAAA [75%, Ex sub1, 30] tested on MS2 coat protein.
16.5

* * *

Tested on: MS2 coat protein
Assay: apparent KD of MS2 coat protein, switch OFF state (with FMN for OFF switches, without FMN for ON switches); designed switch direction (-1 OFF switch, 1 ON switch): 1; higher = weaker reporter binding
Details: FMN input: 0 or 200 uM; Eterna round: R93 (includes R88 designs)
Field: apparent KD of MS2 coat protein. Provide a value for each of the sequences that follow.
Express the result in nM but write the number alone.

Report apparent KD of MS2 coat protein for AUAAAUAAAGUUAAGGAUAUUAUAAAGAAAACAUGAGGAUCACCCAUGUAAAAGAAAAUAGUGGGUAAGAAGGUAACAAAUAAAU [SS2 M 18] tested on MS2 coat protein.
42.7

Report apparent KD of MS2 coat protein for AAAAGACAUGAGGAUCACCCAUGUGAAAACGUAGGAGGAUAUGUAUGGAAACCAGACUGUACAGAAGGCCUUUGUC [SS1 - 75] tested on MS2 coat protein.
23.3

Report apparent KD of MS2 coat protein for AAUAUACAUGAGGAUCACCCAUGUUAGGUGGGUCAAGGAUAUCAAAAUAAAUAAAGAACAUGAGAAGGUGAAUAAA [JR_SS001_Sub018] tested on MS2 coat protein.
161

Report apparent KD of MS2 coat protein for AAGAAACAUGAGGAUCACCCAUGUGAAAGAAACACAGGAUAUGCGAAAAGAAACAAAGAAGCAGAAGGGUGAAGAA [Mat - Same State 1 - Tesla mod - 58] tested on MS2 coat protein.
39.2

Report apparent KD of MS2 coat protein for CGGCAAGAGAGAGAGGAUAUCCAAAGGAAAACAUGAGGAUCACCCAUGUAGAAGGUAGGAAAUUGGGAGAAGGCUCAAGAGAGAG [salish99-ss2-135] tested on MS2 coat protein.
18.4

Report apparent KD of MS2 coat protein for AAAUAAAUGACUAAGGAUAUAUCAAAGAAAACAUGAGGAUCACCCAUGUAAUAAUAAAAAGGGUGAUAGAAGGUAGUCAACAAAC [74%, More Paria 4] tested on MS2 coat protein.
221

Report apparent KD of MS2 coat protein for AGAUCUAGAAGGUAGGAUAUGUGUAAAAAUACAUGAGGAUCACCCAUGUGAUGAAUAAAAAGAAAAUAGAAGGACCAUCUAGAUC [Cross swing 3] tested on MS2 coat protein.
119

Report apparent KD of MS2 coat protein for AAAACACAUGAGGAUCACCCAUGUAAAAACAUGAGAGGAUAUGCUUGGAAAACAUGCUAUGCAGAAGGCUCAAGUG [SS1 - 9] tested on MS2 coat protein.
30.1

Report apparent KD of MS2 coat protein for AAGGAACAUGAGGAUCACCCAUGUAAAAAAUAUGGAGGAUAUACUAGAAGAAACAAAAUAGUAGAAGGCCAAAAAA [75%, Ex sub1, 30] tested on MS2 coat protein.
20.6

Report apparent KD of MS2 coat protein for UGAAGACAUGAGGAUCACCCAUGUGGGAAUAUGGGAGGAUAUACAAAGACGAGAGUCAGAGUAGAAGGCCUAGGAC [salish99-ss1-98] tested on MS2 coat protein.
133

Report apparent KD of MS2 coat protein for CGAAGACAUGAGGAUCACCCAUGUGGGAUUAUGGGAGGAUAUACAAAGACGAGAGUCAGAGUAGAAGGCCUAGGAC [salish99-ss1-127(!)] tested on MS2 coat protein.
33.4

Report apparent KD of MS2 coat protein for AAAACCUGCGUCGAGGAUAUGUAGCCCACUACAUGAGGAUCACCCAUGUGGAUCUUACUGGGUCGACAGAAGGUGAAAGUAAGGC [Ustionon] tested on MS2 coat protein.
39.4

Report apparent KD of MS2 coat protein for AAGAAACAUGAGGAUCACCCAUGUAGAAACAUGGGAGGAUAUACGAAGACGAAAGUCAAAGUAGAAGGCCUAAAAA [Garnet 90] tested on MS2 coat protein.
198

* * *

System: MS2 coat protein
Assay: apparent KD of MS2 coat protein; designed switch direction (-1 OFF switch, 1 ON switch): -1; higher = weaker reporter binding
Details: input ligand: FMN 200 uM
Field: apparent KD of MS2 coat protein. Provide a value for each of the sequences that follow.
Express the result in nM but write the number alone.

What apparent KD of MS2 coat protein value was documented for this sequence, GGAUCGAAUGUGAGGAUAUGCAGGUCCUUGGAUCUGCAGAAGGCACAUGAGGAUCACCCAUGUGAUCAAGAUCC [Mat - Exclusion 4 - Eli Mod - D48] (Eterna round: R97, puzzle: Brourd's mod of Exclusion 4) ?
63

What apparent KD of MS2 coat protein value was documented for this sequence, CCCACAGGACAUGAGGAUCACCCAUGUGCGAUAUCCUGAGCGCAGGAUAUUUUCCCACGAAAGGAAGAGAAGGGCGCCGAAAGC [Eternabot solution 1] (Eterna round: R96, puzzle: Exclusion NG 3) ?
24.6

What apparent KD of MS2 coat protein value was documented for this sequence, UCAAUUUUGACAGGAUAUAGUUUUUGUUUCUCUCUAGAAGGGUCUGUGUACAUGAGGAUCACCCAUGUUCUUCUUAUUUAUAUU [JR_ExcNG1_Sub014] (Eterna round: R96, puzzle: Exclusion NG 1) ?
28.4

What apparent KD of MS2 coat protein value was documented for this sequence, CCGUCCUCAGUUAGGAUAUCUUCCGGAGAACGAAAGGAGAAGGAACAUGAGGAUCACCCAUGUGGCCCGAUGGA [Eternabot (Original) Solution 16] (Eterna round: R97, puzzle: Brourd's mod of Exclusion 4) ?
85.3

What apparent KD of MS2 coat protein value was documented for this sequence, AUAUUACAUGAGGAUCACCCAUGUGAGGAUAUGGAGCGAGACUGUCCUGUCGCGUACACCAGAAGGCGCGGGCG [1st #53] (Eterna round: R97, puzzle: Exclusion 1) ?
27.5

* * *

Tested on: K4 kissing-loop RNA reporter;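 further: bound reporter read as fluorescence of individual clusters on recovered sequencing chips by microscopy, with normalized cluster intensities fitted with a binding model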
Assay: apparent KD of K4 kissing-loop reporter; higher = weaker reporter binding
Conditions: Eterna round: R107; input ligand: arginine 13.2 mM
Field: apparent KD of K4 kissing-loop reporter. Provide a value for each of the sequences that follow.
Express the result in nM but write the number alone.

What apparent KD of K4 kissing-loop reporter value was documented for this sequence, AUUUUCAUUUUAUUAUAUAACUUUUCAGAAGGAGCGUGGAAGUUCACAGGUAGGUCGCUGAAUAUUGGACUAGUGAUGUUAGUUA [JR_Nu_SSArginiA_Sub022] ?
244

What apparent KD of K4 kissing-loop reporter value was documented for this sequence, CGCGCGCGCCGCAAGGCGCGCGCGAACGAUACCAGUAUAUAAGAAUACCCUUGGCAGCGUAAGAAAGCUAUAGUGAUGUUGUAGA [#19 K4 Theophylline A Same State] ?
121

What apparent KD of K4 kissing-loop reporter value was documented for this sequence, AAACAACGUGACGAUACCAGCUUACUCGGCAAGCCAGUGAUGUUGGUGAAAAGGAGUCAAAGCCCUUGGCAGCGUCGAAGGUUUG [Leteon] ?
268

What apparent KD of K4 kissing-loop reporter value was documented for this sequence, AAAAUAAAUAGCAGUCACGGAGUGAUGUUCCGAGGACCGGUACGGCCGCCACUCGACCAGACAAAGUCUGGAUGGCGAGACUGCA [#SwitchBubble 19 #K4Early] ?
290

What apparent KD of K4 kissing-loop reporter value was documented for this sequence, AAACAUCACUGGGAGUGAUGUUCUCAGUGACGAGGACCGGUACGGCCGCCACUCGCGAGAGAUAUAAUUAAGUAAUGACAUCAUU [Excl Tryptophan A V6] ?
267

What apparent KD of K4 kissing-loop reporter value was documented for this sequence, UAGUCAUACAGAGGAUAUCGUAUGAGUGAUGUUCAUAUGCGUACAUCAACUUGAUGUACACCUAGACGAGAAGGCUGUAUGACUA [FMB B SS t6a] ?
199

What apparent KD of K4 kissing-loop reporter value was documented for this sequence, UUUUAAAUGUCUGAUACCAGAGAAAAUUUAUGUAGUGAUGUUAUAUACAAAUUAAAUAAGCUCCCUUGGCAGCAGUAUUAAUUUU [AstrosExc-TheB#9] ?
596

What apparent KD of K4 kissing-loop reporter value was documented for this sequence, UUUACUCCGAGUGAUGUUCGGCGUAUCUGACGAGGACCGGUACGGCCGCCACUCGGUUCGACUACGAAGGCCUUGGCCACAGAUU ?
174

What apparent KD of K4 kissing-loop reporter value was documented for this sequence, AAAACCAAAAGCGAUACCAGCGCGGAGUGAUGUUCCGAGGAUCGGAGUGAUGUUCCGAAGCGCCCUUGGCAGCGCAAAAGCGCAA [Exclusion Theophylline B GF 7] ?
139

What apparent KD of K4 kissing-loop reporter value was documented for this sequence, GAUAUAGUGAUGUUAUAUACUGAUAGACAACGAGGACCGGUACGGCCGCCACUCGAGAGGGUGAAAAUGAUGAUAAAAUAAUAAU [#01 K4 Tryptophan A Exclusion] ?
283

What apparent KD of K4 kissing-loop reporter value was documented for this sequence, UUAGCGACAAGUCAGAUUCUGACAAUUGAUACCAGAUAGAAUUCUAUCCCUUGGCAGCAGUGAUGUUGUUGCAAUAAGUCGCAUU [AK2 Exc Theophylline A] ?
253

What apparent KD of K4 kissing-loop reporter value was documented for this sequence, UGUCAUUGGUCGGCCGCCACUUCAUAAAGAGUGAUGUUCUAAAAGACGGAUCGAAAGAUCUGUCGAAGGACCGGGAUCGAUGACU [FiskerMod 11 - Jieux - Same State - Tryptophan B] ?
559
